Experiment: Oral bioavailability in dog at 0.3 mg/kg
Format: ADME, organism-based, Canis lupus familiaris
Details: in vivo
Recorded measurements of bioavailability, one per entry
Be sure to follow the number with its unit.

[
  {
    "Smiles representation": "Cc1nnn(C)c1-c1cnc2c3ccc(C(C)(C)O)cc3n([C@H](c3ccccc3)C3CCOCC3)c2c1",
    "bioavailability": "59%"
  }
]

// below: bioavailability requested for another molecule
Exercise: Item [2H]C([2H])([2H])c1nnn(C)c1-c1cnc2c3cc(F)c(C(C)(C)O)cc3n([C@H](c3ccccc3)C3CCOCC3)c2c1 has what recorded bioavailability?
Key: 73%

----------
Assay: Oral bioavailability in cynomologus monkey at 0.3 mg/kg
Type: ADME, organism-based, Macaca fascicularis
Details: cynomolgus monkey, in vivo
Endpoint name: bioavailability (%)
Enter your answer as a number in %; do not include the unit.

[
  {
    "Compound": "[2H]C([2H])([2H])c1nnn(C)c1-c1cnc2c3cc(F)c(C(C)(C)O)cc3n([C@H](c3ccccc3)C3CCOCC3)c2c1",
    "Quantity unit": "%",
    "bioavailability": 85
  }
]

Exercise: Which bioavailability is reported for this compound? Cc1nnn(C)c1-c1cnc2c3ccc(C(C)(C)O)cc3n([C@H](c3ccccc3)C3CCOCC3)c2c1 [EZOBRESIB]
Key: 16

The measured values listed here are drawn from ChEMBL document CHEMBL5120938.
